- measured on: HRgpA-6H (Porphyromonas gingivalis) (UniProt P28784)
- test protocol: ELISA, coated HRgpA-6H
measure: OD450 nm
Numbers only.

KB001 mouse Fab VH S30E (Fab, V domains shown) VH: EVQLKQSGPGLVAPSQSLSITCTVSGFSLEIYSVHWVRQPPGKGLEWLGMIWGGGSSDYNSALKSRLSISKDNSKSQVFLKMNSLQTDDTAMYYCARNGNFYAMDYWGQGTSVTVSS VL: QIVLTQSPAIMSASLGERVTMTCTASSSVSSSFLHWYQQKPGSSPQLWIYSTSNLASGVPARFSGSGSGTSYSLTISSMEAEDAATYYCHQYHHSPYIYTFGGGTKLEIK | 0.567
KB001 mouse Fab VL S31W (Fab, V domains shown) VH: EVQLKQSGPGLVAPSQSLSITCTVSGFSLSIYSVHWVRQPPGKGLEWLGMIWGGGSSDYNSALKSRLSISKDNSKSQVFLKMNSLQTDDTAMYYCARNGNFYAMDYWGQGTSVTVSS VL: QIVLTQSPAIMSASLGERVTMTCTASSSVSWSFLHWYQQKPGSSPQLWIYSTSNLASGVPARFSGSGSGTSYSLTISSMEAEDAATYYCHQYHHSPYIYTFGGGTKLEIK | 0.808

Consider the additional binder presented here.
Input: Consider the binder KB001 mouse Fab VH K64H (Fab, V domains shown) VH: EVQLKQSGPGLVAPSQSLSITCTVSGFSLSIYSVHWVRQPPGKGLEWLGMIWGGGSSDYNSALHSRLSISKDNSKSQVFLKMNSLQTDDTAMYYCARNGNFYAMDYWGQGTSVTVSS VL: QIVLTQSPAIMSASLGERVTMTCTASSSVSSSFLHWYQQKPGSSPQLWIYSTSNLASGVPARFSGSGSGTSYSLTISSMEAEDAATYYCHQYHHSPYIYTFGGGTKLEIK and give its measured OD450 nm.
Output: 0.752
